Assay system: HCV genotype 1b (BK) NS3 modified enzyme with a R155K mutation (Hepatitis C virus genotype 1b, UniProt P26663, R1181K)
Construct: HCV genotype 1b (BK) NS3 modified enzyme
Run description: HCV NS3 protease time-resolved fluorescence (TRF) assay, genotype 1b R155K
Format: biochemical
Condition: Ki 1b R155K, first of two values printed in the cell (not explained)
Source text: The HCV NS3 protease inhibitory activity of the present compounds may be tested using assays known in the art. One such assay is HCV NS3 protease time-resolved fluorescence (TRF) assay as described below and in International Patent Application Publication No. WO2006/102087. […] Product fluorescence is detected using either a VICTOR V2 or FUSION fluorophotometer (Perkin Elmer Life and Analytical Sciences) with excitation at 340 nm and emission at 615 nm with a 400 μs delay. […]
Measured endpoint: Ki (nM)

• C=C[C@@H]1C[C@]1(NC(=O)[C@@H]1C[C@@H]2CN1C(=O)[C@H](C1(C)CCCCC1)NC(=O)O[C@@H]1C[C@H]1CCCCCc1c(nc3ccccc3c1OC1CC3CCC(C1)N3C)O2)C(=O)NS(=O)(=O)C1(C)CC1 (some centres unmarked) = 0.006
• C=C[C@@H]1C[C@]1(NC(=O)[C@@H]1C[C@@H]2CN1C(=O)[C@H](C(C)(C)C)NC(=O)O[C@@H]1C[C@H]1CCCCCc1c(nc3ccccc3c1OC1CC3CCC(C1)N3C(=O)OC(C)(C)C)O2)C(=O)NS(=O)(=O)C1(C)CC1 (single isomer, unassigned) [Example 278] = 0.86

Value source: patent US9328138B2
